- System: Vero E6 infected with SARS-CoV-2
- Method Description: inhibition of SARS-CoV-2 cytopathic effect; higher = more antiviral protection, active = above 15
- Study Conditions: 8.33 nM; 48 h
Where a name gives a salt, the structure may show the parent alone.
Observed Property: inhibition of SARS-CoV-2 cytopathic effect (%)
API: value field is a number in %; no unit string.

Please review the entries below; each comes with its answer.
molecule="CN(C)CC/C=C1/c2ccccc2COc2ccc(CC(=O)O)cc21 [Olopatadine hydrochloride (Opatanol)]" numeric_value=1.55
molecule=C[C@H]1COc2c(C3(N)CC3)c(F)cc3c(=O)c(C(=O)O)cn1c23 numeric_value=-1.82
molecule="CC1=C(C(=O)Nc2cc3cn[nH]c3cc2F)C(c2ccc(C(F)(F)F)cc2)CC(=O)N1 (centres undefined)" numeric_value=-1.07
molecule=CCN(CC)CCCCC1CCN(CC(=O)N2c3ccccc3C(=O)Nc3cccnc32)CC1 numeric_value=0.18

// query Provide value of inhibition of SARS-CoV-2 cytopathic effect for this record tested with Vero E6 infected with SARS-CoV-2: N=C(N)NC(=O)c1nc(Cl)c(N)nc1N [amiloride]
// result 3.86

// query Lab note: need inhibition of SARS-CoV-2 cytopathic effect with Vero E6 infected with SARS-CoV-2 for entry `CC(C)(F)C[C@H](N[C@@H](c1ccc(-c2ccc(S(C)(=O)=O)cc2)cc1)C(F)(F)F)C(=O)NC1(C#N)CC1` , please look it up.
// result -4.52

// query # query: inhibition of SARS-CoV-2 cytopathic effect | item CN(C)C(=S)SC(=S)N(C)C [tetramethylthiuram-monosulfide] | system: Vero E6 infected with SARS-CoV-2
// result -6.29

// query Entry O=c1c2ccccc2[se]n1-c1ccccc1 [ebselen] , system Vero E6 infected with SARS-CoV-2: what inhibition of SARS-CoV-2 cytopathic effect was measured?
// result 3.3

// query Vero E6 infected with SARS-CoV-2 / inhibition of SARS-CoV-2 cytopathic effect / `CC(C)NC(=O)c1ccc(C#Cc2ccncc2)cn1` : value?
// result 1.41
